Recorded values, source the supplement of paper PMC10681739.

targetUnderTest: ETS1 (UniProt P14921)
Sequence: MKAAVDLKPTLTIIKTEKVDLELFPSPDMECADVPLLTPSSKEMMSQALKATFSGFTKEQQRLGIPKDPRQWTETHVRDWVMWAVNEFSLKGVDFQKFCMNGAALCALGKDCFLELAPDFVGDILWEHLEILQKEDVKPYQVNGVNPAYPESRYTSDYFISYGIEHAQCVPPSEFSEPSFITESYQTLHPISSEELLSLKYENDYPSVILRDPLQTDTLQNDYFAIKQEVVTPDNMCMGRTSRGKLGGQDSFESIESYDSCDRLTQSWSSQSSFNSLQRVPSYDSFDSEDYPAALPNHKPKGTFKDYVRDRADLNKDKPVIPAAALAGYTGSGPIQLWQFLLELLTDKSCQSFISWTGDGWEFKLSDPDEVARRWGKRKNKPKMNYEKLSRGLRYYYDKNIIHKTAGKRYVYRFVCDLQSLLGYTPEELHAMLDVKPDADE
measurementDescription: ETS1 binding intensity (PBM fluorescence) in presence of RUNX1, normalised to ETS1-only experiment (arbitrary fluorescence units); higher = stronger binding
conditionInfo: ETS1 concentration 1 nM; RUNX1 concentration 25 nM
The following ranges of ETS1 binding intensity define the classes used here: bottom = under 900, middle = from 900 up to 3000, top = 3000 and over

Lookup: Class label required: TACTAGTTTGGGGCATCCTGTGGTATAGGGGAAGCA
Found: top

Lookup: Class label required: GGGTGCAGACGGGAAGTTGCGGCTGCCAGCGAAGCT
Found: middle

Lookup: Class label required: TCAAGAGGGTGTGGAGGAAGTGGGTTACAAGCACTT
Found: middle

Lookup: Class label required: AGATGCAGAACAGGAAGTGGTTTAGAAAGCCACTCT
Found: top

Lookup: Class label required: GACACCTGAGAGGATGTGTGGCTTTGTGCTATGAGA
Found: bottom

Lookup: Class label required: GTCCCCCGGAACCGTCTCCTCCCCCGCACGCGCCGC
Found: bottom

Lookup: Class label required: TGCTTCTGAGGAAGTGATCTGTGGTCAAAGAAAGAA
Found: middle

Lookup: Class label required: CCACCGTCCCCGGAAATAACCGCGCCTGCCTCTCAA
Found: top

Lookup: Class label required: CCCTACCTCTCCTTCCTGCCACAAGGGAAAGTCACT
Found: bottom

Lookup: Class label required: GCGGGCGGAAGTGCCGAGGTTGTACCGCGGCGCTGG
Found: middle

Lookup: Class label required: ACGTGATGGCAGTCTTCCTGCCCACAAGTTCTGGTC
Found: bottom

Lookup: Class label required: GCTTCTTCCGGCCGGGCCGAGAGGTGGTTACATTCG
Found: bottom

Lookup: Class label required: CGTACGCGCACTTCCGGTCTTTGTGGCTTGCAGCTC
Found: top

Lookup: Class label required: CCCAGGCTTCCGGGTTGAATATGTGGGCTGAGGCGA
Found: bottom

Lookup: Class label required: GGACGCTTCCGGTGGAAGGGAGCTGTTGCGGGGCTT
Found: middle

Lookup: Class label required: GCACTGTGGGAGGAAGTGGGTATGTGGTGAGCTCTT
Found: top

Lookup: Class label required: CCCCACATCCGGGGGCCGGGGCCGGGCTGTGGGCTT
Found: bottom

Lookup: Class label required: CACTGCGGAAGCAGTGTAGAGAGGTGGTTATCAGTG
Found: bottom

Lookup: Class label required: ACTCCCTAGAGCAGGAAGCCTGTGGTTTGTAATTGG
Found: top

Lookup: Class label required: ACTCACTTCCGTTTAGCTTATCAACCACCAAGAGAC
Found: middle

Lookup: Class label required: CAATGGATGGCCACATCCTCACCACAAACTGAGTCA
Found: bottom

Lookup: Class label required: GACAGAGGAAACTAGGTGTGACAACCACAAACAGCT
Found: bottom

Lookup: Class label required: ACAGGCTGTCTGCTTCCGTCAGCGGTTATTCCCTTG
Found: bottom

Lookup: Class label required: TGTCGGGCGGATGTGTACCGGCGGTAATATAGTAAG
Found: middle

Lookup: Class label required: CTTCTGAGAGGAGGATGTGGTCAGATACCTACAAAT
Found: top

Lookup: Class label required: GCCCCCGGAAGCTGTCGCCCCGTGCGGTGTGTGCTG
Found: middle

Lookup: Class label required: AAGTGAAGAGCTTCCGCCGGGAGACCGCGGCTGCAG
Found: bottom

Lookup: Class label required: GGGGCTCCGCAGGAAGTAGGGCTCCCACAACTTTGC
Found: middle

Lookup: Class label required: CTCCCCCCACGACTTCCCTCTGTGGCCCCGGGCCGC
Found: bottom

Lookup: Class label required: AGGTTTTGAAAGAGGAAACCACATACCCGAAAACCA
Found: middle

Lookup: Class label required: AGCCCCTACCACTTCCCCCCACAGCAGTTCTGAGAT
Found: bottom

Lookup: Class label required: CCCCTCAGCTTCCGGGTGCTGCGGCCGCGGCCGAGA
Found: middle

Lookup: Class label required: TCAAGAAAACAGGAAACTCTCAAAACCAAGTTCTGA
Found: middle

Lookup: Class label required: AGCGTTGTCTTCCGGCCTCAACCACTCAGCGACCGG
Found: top

Lookup: Class label required: GCGGAGGCGGAAGTCGTGCTGCTGCTGACCACGGCT
Found: top

Lookup: Class label required: TGGTTTCTCACTGGCGGATGTGGGTGGGTCGCCTCC
Found: top

Lookup: Class label required: CAAAGTGATGGGGGAAATGGTTGTGGTTTTGGGTGG
Found: top

Lookup: Class label required: CCAGGATGTAGTTTGGCCACTATTGAGTGGTTTGTT
Found: bottom

Lookup: Class label required: GAAGCCCAACAGGATGCCGAGTAACCACCCACTGAA
Found: middle

Lookup: Class label required: CGCCTGCCCCACTTCCGCCCGGACCCGCAGCCCCTA
Found: top

Lookup: Class label required: GAGGGGAGGATGTCTGAGCTTTTAATTGTGGTTTCA
Found: middle

Lookup: Class label required: CCTGCCTGACCGGAAGTGCCCGCAACCCCACCGACC
Found: top

Lookup: Class label required: CAGCAGCACCTGCATCCGCTGCGGGAGTCCGAGCCG
Found: bottom

Lookup: Class label required: GTTTAACAGGAAACCCTGCAGACCACAGGTTCTGTC
Found: top

Lookup: Class label required: CCCAGGGCAGGAAGGGCCAAACCGCTACTGCCACTG
Found: middle

Lookup: Class label required: CAACAACCGGAAGTGGGGCGGGCCGCAGTACCCGCC
Found: top

Lookup: Class label required: CGTAGCGAGGAGCGGAAAACGCGGTAACCAAGGCGG
Found: middle

Lookup: Class label required: CCCACTGATAAGACAGGATGTGGTAAAGAAGCCAGC
Found: top
